Attribute: Number of entries in to open arm
# Tested on: experimental rat
# runDescription: Elevated Plus Maze (EPM) test in rats
# Type: in vivo
# measurementContext: male Wister rats, n=6, end of treatment, doses per Table 3
Only the number, expressed in times, is required.

[ask] Request the reported Number of entries in to open arm associated with CN1CCN(C2=Nc3cc(Cl)ccc3Nc3ccccc32)CC1 [Clozapine]
[reply] 10

[ask] CC(=O)O[C@H](CC(=O)[O-])C[N+](C)(C)C [Group 4] , same question.
[reply] 08

[ask] CN(C)CCC[C@@]1(c2ccc(F)cc2)OCc2cc(C#N)ccc21 [Escitalopram] , same question.
[reply] 07

[ask] N=C(N)NCCCCN [Group 5, N-4-aminobutylguanidine] , same question.
[reply] 07

---

Attribute: Number of times rearing
# Test system: experimental rat
# runDescription: Elevated Plus Maze (EPM) test in rats
# Format: in vivo
# measurementContext: male Wister rats, n=6, end of treatment, doses per Table 3
Number plus unit, in that order.

CN1CCN(C2=Nc3cc(Cl)ccc3Nc3ccccc32)CC1 [Clozapine] : 25 times

[ask] Request the reported Number of times rearing associated with CC(=O)O[C@H](CC(=O)[O-])C[N+](C)(C)C [Group 4]
[reply] 18 times

[ask] N=C(N)NCCCCN [Group 5, N-4-aminobutylguanidine] , same question.
[reply] 16 times

[ask] CN(C)CCC[C@@]1(c2ccc(F)cc2)OCc2cc(C#N)ccc21 [Escitalopram] , same question.
[reply] 18 times

---

# Tested on: experimental rat
# runDescription: Elevated Plus Maze (EPM) test in rats
# Assay type: in vivo
# measurementContext: male Wister rats, n=6, end of treatment, doses per Table 3
resultType: Time in the open arms (%)
Only the number, expressed in %, is required.

Some solved cases for reference:
CN1CCN(C2=Nc3cc(Cl)ccc3Nc3ccccc32)CC1 : 15
CC(=O)O[C@H](CC(=O)[O-])C[N+](C)(C)C : 12
N=C(N)NCCCCN : 11

Continue with the compound presented below.
[ask] Request the reported Time in the open arms associated with `CN(C)CCC[C@@]1(c2ccc(F)cc2)OCc2cc(C#N)ccc21`
[reply] 11

Data provenance is patent US12226385B2.
